B1: MYBL2 (parent)
chain: IAKHLKGRLGKQCRERWHNHLNPE

Variants of: B1
Assay: protein stability index of a GFP-peptide fusion (GPS, HEK-293T) (PSI 1-6); higher = more stable;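 note: lentivirally expressed fusions sorted by FACS into six bins by GFP to DsRed ratio, PSI derived from sequencing read proportions per bin multiplied by bin number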
Conditions: c terminus: a fixed tail appended
experimental-endpoint: protein stability index
I only need the number, thanks.

variant-notation	experimental-endpoint	observed-value
N22T	protein stability index	2.53
N22Y	protein stability index	2.45
Q12R	protein stability index	2.44
K3G	protein stability index	1.79
C13N	protein stability index	3.21
E24S	protein stability index	1.81

Return protein stability index (reported value) for this variant: H20T 2.09

Complete the entry with protein stability index for N22L 2.24

Look up protein stability index of N19D and report it. 2.05

Entry N22M needs its protein stability index filled in; supply it. 2.58

Note down protein stability index recorded for N22C 1.92

Return protein stability index for the following variant: K11M 2.69

Tell me its protein stability index given L21W as the entry. 1.79
